Biological target: T1, human GIP receptor (human, UniProt P48546 22-466)
T1 construct: whole, on cells; also called hGIPR
T1 sequence (looked up): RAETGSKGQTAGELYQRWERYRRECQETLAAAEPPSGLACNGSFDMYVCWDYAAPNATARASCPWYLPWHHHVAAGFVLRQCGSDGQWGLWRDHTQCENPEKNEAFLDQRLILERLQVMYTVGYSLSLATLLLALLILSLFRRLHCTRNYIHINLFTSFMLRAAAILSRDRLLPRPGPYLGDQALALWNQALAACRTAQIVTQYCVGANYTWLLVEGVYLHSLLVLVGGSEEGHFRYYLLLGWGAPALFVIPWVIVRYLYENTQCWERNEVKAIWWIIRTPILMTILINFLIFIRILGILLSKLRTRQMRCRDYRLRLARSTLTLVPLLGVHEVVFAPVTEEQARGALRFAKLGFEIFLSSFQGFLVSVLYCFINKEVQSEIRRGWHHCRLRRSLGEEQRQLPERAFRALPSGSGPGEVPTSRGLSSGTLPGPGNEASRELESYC
Test: competition binding vs 125I-GIP(1-42), COS-7 cells transfected with human GIP receptor
Ends that are not written are not given here.
ASSAY_READOUT: Ki (nM)
Answers are plain numbers, in nM.

* GTFISDYSIAMDKIHQQDFVNWLLAQK-NH2 (also called human GIP(4-30)NH2; hGIP4-30) [GIP(4-30)NH2] | 21.5
* AEGTFISDYSIAMDKIHQQDFVNWLLAQK-NH2 (also called human GIP(2-30)NH2; hGIP(2-30)) [GIP(2-30)NH2] | 14.3
* EGTFISDYSIAMDKIHQQDFVNWLLAQK-NH2 (also called human GIP(3-30)NH2; hGIP(3-30)NH2) [GIP(3-30)NH2] | 2.3
* SDYSIAMDKIHQQDFVNWLLAQK-NH2 (also called human GIP(8-30)NH2; hGIP(8-30)) [GIP(8-30)NH2] | 79
* TFISDYSIAMDKIHQQDFVNWLLAQK-NH2 (also called human GIP(5-30)NH2; hGIP5-30) [GIP(5-30)NH2] | 5.9
* FISDYSIAMDKIHQQDFVNWLLAQK-NH2 (also called human GIP(6-30)NH2; hGIP(6-30)) [GIP(6-30)NH2] | 347

Now for a further binder.
Problem: Find the measured Ki of DYSIAMDKIHQQDFVNWLLAQK-NH2 (also called human GIP(9-30)NH2; hGIP(9-30)) [GIP(9-30)NH2] and report it.
Solution: 307
